# EXPERIMENT_NOTES: Oral bioavailability in rat (dose 50 mg/kg)
# Type: ADME, organism-based
# EXPERIMENTAL_PARAMETERS: in vivo
Entries and their bioavailability
RECORDED_ENDPOINT: bioavailability (%)

molecule="CCC1(N(CCO)C(=O)c2ccccc2CCC(O)Cc2ccc(C)cc2C(=O)N(CCC(O)CO)C(C)(C)c2ccccc2)CCCC1 (stereo not given)" quantitative_result=2
molecule="CCC1(N(CCO)C(=O)c2ccccc2CCC(O)Cc2ccc(C)cc2C(=O)N(CCO)C(C)(C)c2ccc(O)cc2)CCCC1 (stereo not given)" quantitative_result=0
molecule="CCC1(N(CCO)C(=O)c2ccccc2CCC(O)Cc2ccc(C)cc2C(=O)N(CC(CO)CO)C(C)(C)c2ccccc2)CCCC1 (stereo not given)" quantitative_result=7
molecule="CCC1(N(CCO)C(=O)c2ccccc2CCC(O)Cc2ccc(Cl)cc2C(=O)N(CCO)C(C)(C)c2ccccc2)CCCC1 (stereo not given)" quantitative_result=31
molecule="CCC1(N(CCO)C(=O)c2ccccc2CCC(O)Cc2ccc(C)cc2C(=O)N(CCO)C(C)(C)c2ccccc2)CCCC1 (stereo not given)" quantitative_result=39
